Each entry below carries its recorded pIC50.
Biological target: E. coli SPase (Escherichia coli, UniProt P00803)
Sequence (P00803 whole entry): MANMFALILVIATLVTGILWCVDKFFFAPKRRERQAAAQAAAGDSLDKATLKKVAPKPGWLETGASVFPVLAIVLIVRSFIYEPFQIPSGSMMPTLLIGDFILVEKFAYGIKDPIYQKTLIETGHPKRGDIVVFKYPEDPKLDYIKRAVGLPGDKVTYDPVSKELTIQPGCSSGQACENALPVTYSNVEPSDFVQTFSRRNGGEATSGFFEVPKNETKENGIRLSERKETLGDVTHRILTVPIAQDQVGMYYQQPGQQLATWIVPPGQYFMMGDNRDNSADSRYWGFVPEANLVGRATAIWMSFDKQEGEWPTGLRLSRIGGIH
Assay: Biochemical SPase activity assay (fluorogenic peptide substrate), E. coli enzyme
Square brackets hold non-standard residues; d marks the D form. Peptide text beside a SMILES is read from it. * marks the point of attachment. ξ: configuration not given here. boroAla((+)-pinanediol) = C[C@H](N*)B1O[C@@H]2C[C@@H]3C[C@@H](C3(C)C)[C@]2(C)O1; Biphenylcarbonyl(4'-Bu) = CCCCc1ccc(-c2ccc(C(=O)*)cc2)cc1; X1 = C[C@H](N*)B1OC2C[C@@H]3C[C@@H](C3(C)C)[C@]2(C)O1; Thr(3ξ) = CC(O)[C@H](N)C(=O)O; boroAla = C[C@H](N*)B(O)O; βAla = NCCC(=O)O
Keep it numeric: pIC50 is minus log10 of the concentration in mol/L.

Solved cases below.
molecule: C[C@H](NC(=O)[C@H](CCCCN)NC(=O)[C@H](C)NC(=O)[C@@H](NC(=O)[C@H](CCN)NC(=O)c1ccc(-c2ccccc2C(F)(F)F)cc1)[C@@H](C)O)B1OC2C[C@@H]3C[C@@H](C3(C)C)[C@]2(C)O1 (stereo partly shown)
obsValue: 7.55
//
molecule: CCCCc1ccc(-c2ccc(C(=O)NCCC(=O)N[C@@H](CCCCN)C(=O)N3CCC[C@H]3C(=O)N[C@@H](C)C(=O)N[C@@H](CCCCN)C(=O)N[C@@H](C)B3OC4C[C@@H]5C[C@@H](C5(C)C)[C@]4(C)O3)cc2)cc1 (stereo partly shown) [Compound 214] ({Biphenylcarbonyl(4'-Bu)-βAla}-KPAK-X1)
obsValue: 7.11
//
molecule: CCCCc1ccc(-c2ccc(C(=O)N[C@H](CCCCN)C(=O)N[C@H](C(=O)N[C@@H](C)C(=O)N[C@@H](CCCCN)C(=O)N[C@@H](C)B(O)O)C(C)O)cc2)cc1 (stereo partly shown) [Compound 160] ({Biphenylcarbonyl(4'-Bu)}-[dK][Thr(3ξ)]AK-boroAla)
obsValue: 5.68

Attention now shifts to the item below.
What the record says about CCCCc1ccc(-c2ccc(C(=O)N[C@@H](CCCCN)C(=O)N[C@@H](CCCCN)C(=O)N[C@@H](C)C(=O)N[C@@H](CC(N)=O)C(=O)N[C@@H](C)B3O[C@@H]4C[C@@H]5C[C@@H](C5(C)C)[C@]4(C)O3)cc2)cc1 [Compound 134] ({Biphenylcarbonyl(4'-Bu)}-KKAN-{boroAla((+)-pinanediol)}) : pIC50 is 8.06

---

Target: S. aureus SPase (Staphylococcus aureus)
Sequence (P0A070 whole entry): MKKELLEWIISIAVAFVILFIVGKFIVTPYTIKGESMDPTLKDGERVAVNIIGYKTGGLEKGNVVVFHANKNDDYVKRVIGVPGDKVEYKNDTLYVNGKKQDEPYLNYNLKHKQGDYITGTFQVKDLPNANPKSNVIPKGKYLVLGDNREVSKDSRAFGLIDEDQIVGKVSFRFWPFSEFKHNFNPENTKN
Assay: biochemical
Numbered stars: 1 amine (or outer) side, 2 acyl side, 3 side chain; on linkers, the order of the positions; unused ones are H or OH. Square brackets hold non-standard residues; d marks the D form. Peptide text beside a SMILES is read from it. * marks the point of attachment. ξ: configuration not given here. Biphenylcarbonyl(4'-Bu) = CCCCc1ccc(-c2ccc(C(=O)*)cc2)cc1; X1 = C[C@H](N*)B1OC2C[C@@H]3C[C@@H](C3(C)C)[C@]2(C)O1; ξ3Amino2oxobutanoyl = CC(N[*:1])C(=O)C(=O)[*:2]; Benzoyl(4-hexyl) = CCCCCCc1ccc(C(=O)*)cc1; NMeThr(3ξ) = CN[C@H](C(=O)O)C(C)O; Thr(3ξ) = CC(O)[C@H](N)C(=O)O; boroAla = C[C@H](N*)B(O)O; Orn = NCCC[C@H](N)C(=O)O
measuredAttribute: pIC50
When answering, recall that pIC50 equals minus log10 of the concentration in mol/L, and write that number alone.

// known answers, use as guide
compound: CCCCc1ccc(-c2ccc(C(=O)N[C@@H](CCCN)C(=O)N[C@H](C(=O)N[C@@H](C)C(=O)N[C@@H](CCCCN)C(=O)N[C@@H](C)B(O)O)C(C)O)cc2)cc1 (stereo partly shown) [Compound 156] ({Biphenylcarbonyl(4'-Bu)}-[Orn][Thr(3ξ)]AK-boroAla)
pIC50: 7.01
--
compound: CCCCCCCCCCCCCC(=O)N[C@H](CO)C(=O)N[C@H](C)C(=O)NCC(=O)N(C)[C@H](C(=O)N[C@@H](C)C(=O)N[C@@H](CC(C)C)C(=O)NC(C)C(=O)C(=O)NC)C(C)O (mixture of isomers)
pIC50: 6.82
--
compound: CCCCc1ccc(-c2ccc(C(=O)N[C@@H](CCCCN)C(=O)N[C@@H](CCCCN)C(=O)N[C@@H](C)C(=O)N[C@@H](CC(C)C)C(=O)N[C@@H](C)B3OC4C[C@@H]5C[C@@H](C5(C)C)[C@]4(C)O3)cc2)cc1 (stereo partly shown) [Compound 146] ({Biphenylcarbonyl(4'-Bu)}-KKAL-X1)
pIC50: 6.80

Now examine the next entry.
Measured pIC50, CCCCCCc1ccc(C(=O)N[C@H](CO)C(=O)N[C@H](C)C(=O)NCC(=O)N(C)[C@H](C(=O)N[C@@H](C)C(=O)N[C@@H](CC(N)=O)C(=O)NC(C)C(=O)C(=O)NC)C(C)O)cc1 (stereo partly shown) [Compound 113] ({Benzoyl(4-hexyl)}-[dS][dA]G[NMeThr(3ξ)]AN[ξ3Amino2oxobutanoyl]-NHMe) : 6.33

---

Biological target: S. aureus SPase (Staphylococcus aureus)
Assay: biochemical
Square brackets hold non-standard residues; d marks the D form. Peptide text beside a SMILES is read from it. * marks the point of attachment. boroAla((+)-pinanediol) = C[C@H](N*)B1O[C@@H]2C[C@@H]3C[C@@H](C3(C)C)[C@]2(C)O1; Biphenylcarbonyl(4'-Bu) = CCCCc1ccc(-c2ccc(C(=O)*)cc2)cc1; X1 = C[C@H](N*)B1OC2C[C@@H]3C[C@@H](C3(C)C)[C@]2(C)O1; Benzoyl(4-(4-Cl-Ph)) = O=C(c1ccc(-c2ccc(Cl)cc2)cc1)*; X15 = CCCCCCN1CCC(c2ccc(C(=O)*)cc2)CC1; NMeT = CN[C@H](C(=O)O)[C@@H](C)O; Dab = NCC[C@H](N)C(=O)O; βAla = NCCC(=O)O
measuredAttribute: IC50 (nM)
Give your result in nM as a bare value.

compound: CCCCCCN1CCC(c2ccc(C(=O)N[C@@H](CCN)C(=O)N[C@H](C(=O)N[C@@H](C)C(=O)N[C@@H](CCCCN)C(=O)N[C@@H](C)B3O[C@@H]4C[C@@H]5C[C@@H](C5(C)C)[C@]4(C)O3)[C@@H](C)O)cc2)CC1 [Compound 246] (X15-[Dab]TAK-{boroAla((+)-pinanediol)})
measurementTarget: S. aureus SPase (Staphylococcus aureus)
obsValue: 290

compound: C[C@H](NC(=O)[C@H](CC(N)=O)NC(=O)[C@H](C)NC(=O)[C@@H](NC(=O)[C@H](CCCCN)NC(=O)CCNC(=O)c1ccc(-c2ccc(Cl)cc2)cc1)[C@@H](C)O)B1OC2C[C@@H]3C[C@@H](C3(C)C)[C@]2(C)O1 (stereo partly shown) [Compound 201] ({Benzoyl(4-(4-Cl-Ph))-βAla}-KTAN-X1)
measurementTarget: S. aureus SPase (Staphylococcus aureus)
obsValue: 1.9

compound: CCCCc1ccc(-c2ccc(C(=O)N[C@H](CO)C(=O)N[C@H](C)C(=O)NCC(=O)N(C)[C@H](C(=O)N[C@@H](C)C(=O)N[C@@H](CC(N)=O)C(=O)N[C@@H](C)B3OC4C[C@@H]5C[C@@H](C5(C)C)[C@]4(C)O3)[C@@H](C)O)cc2)cc1 (stereo partly shown) [Compound 226] ({Biphenylcarbonyl(4'-Bu)}-[dS][dA]G[NMeT]AN-X1)
measurementTarget: S. aureus SPase (Staphylococcus aureus)
obsValue: 140

Switching to the query record.
The measured IC50 associated with CCCCc1ccc(-c2ccc(C(=O)N[C@@H](CCN)C(=O)N[C@H](C(=O)N[C@@H](C)C(=O)N[C@@H](CCCCN)C(=O)N[C@@H](C)B3OC4C[C@@H]5C[C@@H](C5(C)C)[C@]4(C)O3)[C@@H](C)O)c(C)c2)cc1 (stereo partly shown) [Compound 241] reads 42

---

Target: S. aureus SPase (Staphylococcus aureus)
Experiment: biochemical
pIC50: −log10 of the molar value. Square brackets hold non-standard residues; d marks the D form. Peptide text beside a SMILES is read from it. * marks the point of attachment. ξ: configuration not given here. Biphenylcarbonyl(4'-Bu) = CCCCc1ccc(-c2ccc(C(=O)*)cc2)cc1; X1 = C[C@H](N*)B1OC2C[C@@H]3C[C@@H](C3(C)C)[C@]2(C)O1; Benzoyl(4-(4-Cl-Ph)) = O=C(c1ccc(-c2ccc(Cl)cc2)cc1)*; Dopa = N[C@@H](Cc1ccc(O)c(O)c1)C(=O)O; Myristoyl = CCCCCCCCCCCCCC(=O)*; Thr(3ξ) = CC(O)[C@H](N)C(=O)O; boroAla = C[C@H](N*)B(O)O; Orn = NCCC[C@H](N)C(=O)O; Dab = NCC[C@H](N)C(=O)O; Dap = NC[C@H](N)C(=O)O; βAla = NCCC(=O)O; ξA = CC(N)C(=O)O
Label rule, in plain words: pIC50 of 7 and up is y, under 7 is n.

compound: C[C@H](NC(=O)[C@H](CC(N)=O)NC(=O)[C@H](C)NC(=O)[C@@H](NC(=O)[C@H](CCCCN)NC(=O)CCNC(=O)c1ccc(-c2ccc(Cl)cc2)cc1)[C@@H](C)O)B(O)O [Compound 154] ({Benzoyl(4-(4-Cl-Ph))-βAla}-KTAN-boroAla)
labelValue: y
//
compound: CCCCc1ccc(-c2ccc(C(=O)N[C@@H](CCCN)C(=O)N[C@H](C(=O)N[C@@H](C)C(=O)N[C@@H](CCCCN)C(=O)N[C@@H](C)B3OC4C[C@@H]5C[C@@H](C5(C)C)[C@]4(C)O3)[C@@H](C)O)cc2)cc1 (some centres unmarked) [Compound 142] ({Biphenylcarbonyl(4'-Bu)}-[Orn]TAK-X1)
labelValue: y
//
compound: CCCCCCCCCCCCCC(=O)N[C@@H](CC(C)C)C(=O)N[C@H](C(=O)N1CCC[C@@H]1C(=O)N[C@H](C(=O)N[C@@H](C)C(=O)N[C@@H](CC(N)=O)C(=O)NC(C)C=O)C(C)O)C(C)O (some centres unmarked) [Compound 108] (Myristoyl-L[Thr(3ξ)][dP][Thr(3ξ)]AN[ξA]-aldehyde)
labelValue: n
//
compound: CCCCc1ccc(-c2ccc(C(=O)N[C@@H](CCN)C(=O)N[C@@H](Cc3ccc(O)c(O)c3)C(=O)N[C@@H](C)C(=O)N[C@@H](Cc3ccc(O)c(O)c3)C(=O)N[C@@H](C)B3OC4C[C@@H]5C[C@@H](C5(C)C)[C@]4(C)O3)cc2)cc1 (some centres unmarked) [Compound 189] ({Biphenylcarbonyl(4'-Bu)}-[Dab][Dopa]A[Dopa]-X1)
labelValue: n
//
compound: C[C@H](NC(=O)[C@H](CCCCN)NC(=O)[C@H](C)NC(=O)[C@@H](NC(=O)[C@H](CCN)NC(=O)c1ccc(-c2ccc(C(F)(F)F)cc2)cc1)[C@@H](C)O)B1OC2C[C@@H]3C[C@@H](C3(C)C)[C@]2(C)O1 (some centres unmarked)
labelValue: n

Then this compound:
(Q) Given the entry CCCCc1ccc(-c2ccc(C(=O)N[C@@H](CN)C(=O)N[C@@H](CCCCN)C(=O)N[C@@H](C)C(=O)N[C@@H](CCCCN)C(=O)N[C@@H](C)B(O)O)cc2)cc1 [Compound 186] ({Biphenylcarbonyl(4'-Bu)}-[Dap]KAK-boroAla) , answer whether its pIC50 meets or surpasses 7.
(A) n
